Assign residual activity to each entry below.
# study_system: ACVRL1 (human) (UniProt P37023)
# Sequence (P37023 whole entry, looked up): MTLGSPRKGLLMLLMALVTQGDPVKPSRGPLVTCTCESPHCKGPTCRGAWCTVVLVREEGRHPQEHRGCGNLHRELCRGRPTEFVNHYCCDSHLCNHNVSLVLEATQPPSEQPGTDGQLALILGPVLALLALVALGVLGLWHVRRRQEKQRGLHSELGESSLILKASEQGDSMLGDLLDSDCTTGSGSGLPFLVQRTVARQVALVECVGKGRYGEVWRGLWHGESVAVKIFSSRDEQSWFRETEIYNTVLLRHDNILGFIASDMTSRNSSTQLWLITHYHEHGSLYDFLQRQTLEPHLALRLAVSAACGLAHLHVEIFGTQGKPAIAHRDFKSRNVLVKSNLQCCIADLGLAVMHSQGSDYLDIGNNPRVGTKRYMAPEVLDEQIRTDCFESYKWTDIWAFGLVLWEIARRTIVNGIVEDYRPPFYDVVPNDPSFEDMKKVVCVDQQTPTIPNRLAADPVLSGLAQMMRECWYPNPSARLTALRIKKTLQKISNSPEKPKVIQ
# test_name: radiometric filter-binding kinase assay, Kinase HotSpot
# condition_notes: compound 0.5 µM; ATP 10 µM
Answer format: numeric, % implied, no suffix.

# compound Nc1ncnc2[nH]nc(Nc3ccc(F)cc3)c12 ; its residual activity = 108

In plain terms, Nc1cccc(-c2cc3c(Oc4cccc(O)c4)ncnc3[nH]2)c1 has a documented residual activity of 70.3

Per the records, this compound ( CCOC(=O)c1c(C)[nH]c(/C=C2\C(=O)Nc3ccccc32)c1C ) has residual activity equal to 94.8

Query c1ccc(-c2n[nH]cc2-c2ccnc3ccccc23)nc1 yields residual activity of 102

Reported residual activity for c1ccc(-c2n[nH]c3c2oc2ccccc23)cc1 was 111

The measured residual activity associated with CCCC(=O)Oc1ccc2[nH]c(C(=O)c3cc4ccccc4[nH]3)cc2c1 reads 90.9

Summary for this compound, CCN(CC)C(=O)c1ccc(Nc2nc(OCC3CCCCC3)c3nc[nH]c3n2)cc1 : residual activity is 106

* * *

# study_system: CSK (human)
# test_name: radiometric filter-binding kinase assay, Kinase HotSpot
# condition_notes: compound 0.5 µM; ATP 10 µM
readout_label: residual activity (%)
Please state the figure in %; there is no need to write the unit.

Per the record, c1ccc(-c2n[nH]cc2-c2ccnc3ccccc23)nc1 has residual activity of 102

Recorded result, CC#CC(=O)Nc1cc2c(Nc3ccc(F)c(Cl)c3)ncnc2cn1 , residual activity: 100

Form: molecule = COc1ccc2c(c[n+](C)c3c4cc5c(cc4ccc23)OCO5)c1OC ; residual activity = 106

Per the records, this molecule ( CC[n+]1c(/C=C/N(C)c2ccccc2)n(-c2ccccc2)c2ccc(-c3nc4ccccc4s3)cc21 ) has residual activity equal to 100

* * *

# study_system: PRKCD (human)
# test_name: radiometric filter-binding kinase assay, Kinase HotSpot
# condition_notes: compound 0.5 µM; ATP 10 µM
readout_label: residual activity

Please fill in: residual activity reported for CCN(CC)CCNC(=O)c1c(C)[nH]c(/C=C2\C(=O)Nc3ccc(Cl)cc32)c1C = 90.4%

For Cc1ccc(NC2=CC(=O)c3sc(C)nc3C2=O)cc1 the molecule record lists residual activity as 104%

// c1ccc(-c2n[nH]cc2-c2ccnc3ccccc23)nc1 : residual activity value = 96.6%

The recorded residual activity for entry Nc1ncnc2c1c(-c1ccc(Oc3ccccc3)cc1)cn2C1CCCC1 equals 99.6%

Entry under test: O=C(Nc1cccc(Nc2nccc(Nc3cccc(C(F)(F)F)c3)n2)c1)C1CC1 . Its residual activity was 87.9%

// residual activity value for COc1cc2ncnc(Nc3cccc(Cl)c3)c2cc1OC : 86.4%

Measured residual activity of Nc1ncnc2[nH]nc(Nc3ccc(F)cc3)c12 : 112%

residual activity reported for this molecule N#C/C(=C(/N)Sc1ccc(N)cc1)c1ccccc1C(F)(F)F : 97.5%

# molecule CC[n+]1c(/C=C/N(C)c2ccccc2)n(-c2ccccc2)c2ccc(-c3nc4ccccc4s3)cc21 ; its residual activity = 93.3%

Item: O=C1Nc2ccc(Cl)cc2/C1=C/c1cc(Cl)c(O)c(Cl)c1 | residual activity: 86.7%

* * *

Please respond with reported residual activity for every item in the list.
# study_system: MAPK12 (human)
# test_name: radiometric filter-binding kinase assay, Kinase HotSpot
# condition_notes: compound 0.5 µM; ATP 10 µM
Give the value in % but do not write % after it.

What the record says about N#CC(C#N)=C(N)/C(C#N)=C/c1ccc(O)cc1 : residual activity is 92.6

For record O=C(Nc1cccc(Nc2nccc(Nc3cccc(C(F)(F)F)c3)n2)c1)C1CC1 the listed residual activity is 99.7

Entry Cc1ccc(NC2=CC(=O)c3sc(C)nc3C2=O)cc1 ; residual activity = 99.3

The origin of these recorded values is the kinase profiling compilation of Christmann-Franck et al. (2016).
